Reference for the values: patent US20240246913A1

The reader will find reported IC50 values listed item by item below.
biological target: VIM-2 (Escherichia coli, UniProt Q5U7L7); assay: MBL inhibition, FC-5 fluorescence assay, VIM-2; format: biochemical; details: FC-5 cephalosporin substrate, ranges of obtained pIC50, read-out: pIC50 VIM-2 (converted)
Counter-ions that a name gives are not always drawn.

COMPOUND: CC(c1cccc2c(-c3ccc(CS(C)(=O)=O)c(F)c3)c(C(=O)O)[nH]c12)n1cc(CCCN)[nH]c1=O (stereo not shown) [IC-64]
TARGET DESC: VIM-2 (Escherichia coli, UniProt Q5U7L7)
IC50: 1 to 10 nM

COMPOUND: CC(NC(=O)Nc1ccc(CN)cc1)c1cccc2c(-c3ccc(CS(C)(=O)=O)c(F)c3)c(C(=O)O)[nH]c12 (stereo not shown) [IC-102]
TARGET DESC: VIM-2 (Escherichia coli, UniProt Q5U7L7)
IC50: 1 to 10 nM

COMPOUND: COc1cc(-c2c(C(=O)O)[nH]c3c([C@H](C)N4C[C@]5(C[C@@H](CN)C5)OC4=O)cccc23)ccn1 [IC-17]
TARGET DESC: VIM-2 (Escherichia coli, UniProt Q5U7L7)
IC50: < 0.1 nM

COMPOUND: C[C@@H](c1cccc2c(-c3ccc(CS(C)(=O)=O)c(F)c3)c(C(=O)O)[nH]c12)N1CC2(CCC(N)CC2)OC1=O (stereo partly shown) [IC-71]
TARGET DESC: VIM-2 (Escherichia coli, UniProt Q5U7L7)
IC50: 1 to 10 nM

COMPOUND: C[C@@H](c1cccc2c(-c3ccc(CS(C)(=O)=O)c(F)c3)c(C(=O)O)[nH]c12)n1cc(CCCN)oc1=O [IC-70]
TARGET DESC: VIM-2 (Escherichia coli, UniProt Q5U7L7)
IC50: 0.1 to 1 nM

COMPOUND: C[C@@H](c1cccc2c(-c3ccc(CS(C)(=O)=O)c(F)c3)c(C(=O)O)[nH]c12)N1C[C@]2(C[C@@H](CN)C2)OC1=O [IC-60]
TARGET DESC: VIM-2 (Escherichia coli, UniProt Q5U7L7)
IC50: 0.1 to 1 nM

COMPOUND: CC(c1cccc2c(-c3ccc(CS(C)(=O)=O)c(F)c3)c(C(=O)O)[nH]c12)n1cc(CCCNC(=N)N)oc1=O (stereo not shown) [IC-73, hydrochloride]
TARGET DESC: VIM-2 (Escherichia coli, UniProt Q5U7L7)
IC50: 1 to 10 nM

COMPOUND: C[C@H](NC(=O)c1ccc(CN)cc1)c1cccc2c(-c3ccc(CN4CCOCC4)nc3)c(C(=O)O)[nH]c12 [IC-59]
TARGET DESC: VIM-2 (Escherichia coli, UniProt Q5U7L7)
IC50: < 0.1 nM

COMPOUND: CC(c1cnn(CCCN)c1)c1cccc2c(-c3ccc(CS(C)(=O)=O)c(F)c3)c(C(=O)O)[nH]c12 (stereo not shown) [IC-5]
TARGET DESC: VIM-2 (Escherichia coli, UniProt Q5U7L7)
IC50: < 0.1 nM

COMPOUND: C[C@@H](c1cccc2c(-c3cnn(C)c(=O)c3)c(C(=O)O)[nH]c12)N1C[C@]2(C[C@@H](CN)C2)OC1=O [IC-28]
TARGET DESC: VIM-2 (Escherichia coli, UniProt Q5U7L7)
IC50: 0.1 to 1 nM

COMPOUND: CC(CC(=O)NCCc1c[nH]cn1)c1cccc2c(-c3ccc(CS(C)(=O)=O)c(F)c3)c(C(=O)O)[nH]c12 (racemic) [IC-104]
TARGET DESC: VIM-2 (Escherichia coli, UniProt Q5U7L7)
IC50: > 10 nM

COMPOUND: CC(OC(=O)Nc1ccc(CN)cc1)c1cccc2c(-c3ccc(CS(C)(=O)=O)c(F)c3)c(C(=O)O)[nH]c12 (stereo not shown) [IC-96]
TARGET DESC: VIM-2 (Escherichia coli, UniProt Q5U7L7)
IC50: 1 to 10 nM

COMPOUND: C[C@@H](c1cccc2c(-c3ccnc(N)c3)c(C(=O)O)[nH]c12)N1C[C@]2(C[C@@H](CN)C2)OC1=O [IC-34]
TARGET DESC: VIM-2 (Escherichia coli, UniProt Q5U7L7)
IC50: 1 to 10 nM

COMPOUND: C/C(=C\C(=O)N1CCOCC1)c1cccc2c(-c3ccc(CS(C)(=O)=O)c(F)c3)c(C(=O)O)[nH]c12 [IC-105]
TARGET DESC: VIM-2 (Escherichia coli, UniProt Q5U7L7)
IC50: > 10 nM

COMPOUND: CNc1ccc(-c2c(C(=O)O)[nH]c3c([C@H](C)N4C[C@]5(C[C@@H](CN)C5)OC4=O)cccc23)cn1 [IC-36]
TARGET DESC: VIM-2 (Escherichia coli, UniProt Q5U7L7)
IC50: > 10 nM

COMPOUND: C[C@@H](c1cccc2c(-c3cnc(O)c(O)c3)c(C(=O)O)[nH]c12)N1C[C@]2(C[C@@H](CN)C2)OC1=O [IC-29]
TARGET DESC: VIM-2 (Escherichia coli, UniProt Q5U7L7)
IC50: 1 to 10 nM

COMPOUND: CC(OCC1CC[N+](C)(C)CC1)c1cccc2c(-c3ccc(CS(C)(=O)=O)c(F)c3)c(C(=O)[O-])[nH]c12 (stereo not shown) [IC-90]
TARGET DESC: VIM-2 (Escherichia coli, UniProt Q5U7L7)
IC50: 1 to 10 nM

COMPOUND: CC(c1cccc2c(-c3ccc(CS(C)(=O)=O)c(F)c3)c(C(=O)O)[nH]c12)N1C(=O)c2cc(O)c(O)cc2C1=O (stereo not shown) [IC-98]
TARGET DESC: VIM-2 (Escherichia coli, UniProt Q5U7L7)
IC50: > 10 nM

COMPOUND: CC(c1cccc2c(-c3ccc(CS(C)(=O)=O)c(F)c3)c(C(=O)O)[nH]c12)n1cc(CO)oc1=O (stereo not shown) [IC-78]
TARGET DESC: VIM-2 (Escherichia coli, UniProt Q5U7L7)
IC50: > 10 nM

COMPOUND: C[C@@H](c1cccc2c(-c3ccc(CS(C)(=N)=O)c(F)c3)c(C(=O)O)[nH]c12)N1C[C@]2(C[C@@H](CN)C2)OC1=O (stereo partly shown) [IC-19]
TARGET DESC: VIM-2 (Escherichia coli, UniProt Q5U7L7)
IC50: 0.1 to 1 nM

COMPOUND: CC(c1noc(C2CNC(=O)C2)n1)c1cccc2c(-c3ccc(CS(C)(=O)=O)c(F)c3)c(C(=O)O)[nH]c12 (stereo not shown) [IC-63]
TARGET DESC: VIM-2 (Escherichia coli, UniProt Q5U7L7)
IC50: < 0.1 nM

COMPOUND: CC(c1cccc2c(-c3ccc(CS(C)(=O)=O)c(F)c3)c(C(=O)O)[nH]c12)N1C(=O)CN(CCCN)C1=O (stereo not shown) [IC-13]
TARGET DESC: VIM-2 (Escherichia coli, UniProt Q5U7L7)
IC50: > 10 nM

----------
experiment: Metabolic stability in mouse hepatocytes; format: in vitro ADME; conditions: cryopreserved mouse hepatocytes, 1 μM compound, 37° C., up to 90 min, read-out: Metabolic stability in hepatocytes, in vitro t1/2, Mouse

TEST SMILES: C[C@@H](c1cccc2c(-c3ccc(CS(C)(=O)=O)c(F)c3)c(C(=O)O)[nH]c12)n1cc(CN2CC(N)C2)oc1=O
half-life at 1 μM: > 6.67 h

TEST SMILES: C[C@@H](c1cccc2c(-c3ccc(CS(C)(=O)=O)c(F)c3)c(C(=O)O)[nH]c12)N1C[C@]2(C[C@H](CN)C2)OC1=O
half-life at 1 μM: > 6.67 h

TEST SMILES: C[C@@H](c1cccc2c(-c3ccc(CS(C)(=O)=O)c(F)c3)c(C(=O)O)[nH]c12)N1C[C@]2(C[C@@H](CN)C2)OC1=O
half-life at 1 μM: > 6.67 h

----------
target: VIM-1 (Pseudomonas aeruginosa, UniProt A0A0F7KYQ8); assay: MBL inhibition, FC-5 fluorescence assay, VIM-1; assay type: biochemical; settings: FC-5 cephalosporin substrate, ranges of obtained pIC50, read-out: pIC50 VIM-1 (converted)
RECORDED ENDPOINT: IC50

COMPOUND: C[C@@H](c1cccc2c(-c3ccc(N)nc3)c(C(=O)O)[nH]c12)N1C[C@]2(C[C@@H](CN)C2)OC1=O [IC-37]
RESULT: > 10 nM
//
COMPOUND: C[C@@H](c1cccc2c(-c3cc(O)nc(O)c3)c(C(=O)O)[nH]c12)N1C[C@]2(C[C@@H](CN)C2)OC1=O [IC-31]
RESULT: > 10 nM
//
COMPOUND: C[C@@H](c1cccc2c(-c3ccc(CS(C)(=N)=O)c(F)c3)c(C(=O)O)[nH]c12)n1cc(CN2CC(N)C2)oc1=O (stereo partly drawn) [IC-53]
RESULT: 1 to 10 nM
//
COMPOUND: C[C@@H](c1cccc2c(-c3cnc(N)nc3)c(C(=O)O)[nH]c12)N1C[C@]2(C[C@@H](CN)C2)OC1=O [IC-42]
RESULT: 1 to 10 nM
//
COMPOUND: C[C@@H](c1cccc2c(-c3ccc(CS(C)(=O)=O)c(F)c3)c(C(=O)O)[nH]c12)n1cc(CCCN)oc1=O [IC-70]
RESULT: 0.1 to 1 nM
//
COMPOUND: C[C@@H](c1cccc2c(-c3ccc(NS(=O)(=O)C4COC4)c(F)c3)c(C(=O)O)[nH]c12)N1C[C@]2(C[C@@H](CN)C2)OC1=O [IC-24]
RESULT: 1 to 10 nM
//
COMPOUND: COc1cc(-c2c(C(=O)O)[nH]c3c([C@H](C)N4CC5(CC(CN)C5)OC4=O)cccc23)ccn1 (stereo partly drawn) [IC-20]
RESULT: 1 to 10 nM
//
COMPOUND: CC(c1cccc2c(-c3ccc(CS(C)(=O)=O)c(F)c3)c(C(=O)O)[nH]c12)n1cc(CN)oc1=O (stereo not drawn) [IC-79]
RESULT: 1 to 10 nM
//
COMPOUND: C[C@@H](c1cccc2c(-c3ccc4c(c3)CNC4=O)c(C(=O)O)[nH]c12)N1C[C@]2(C[C@@H](CN)C2)OC1=O [IC-22]
RESULT: 1 to 10 nM
//
COMPOUND: CC(c1cccc2c(-c3ccc(CS(C)(=O)=O)c(F)c3)c(C(=O)O)[nH]c12)n1cc(CCCN(C)C)oc1=O (stereo not drawn) [IC-75]
RESULT: 1 to 10 nM
//
COMPOUND: C[C@@H](c1cccc2c(-c3cnc(O)c(O)c3)c(C(=O)O)[nH]c12)N1C[C@]2(C[C@@H](CN)C2)OC1=O [IC-29]
RESULT: > 10 nM
//
COMPOUND: C[C@H](NC(=O)c1ccc(CN)cc1)c1cccc2c(-c3ccc(CN4CCOCC4)nc3)c(C(=O)O)[nH]c12 [IC-59]
RESULT: > 10 nM
